Source listed as the supplement of paper PMC6757056.

Give normalized RNA/DNA level without ligand (log10) for every item shown.
B1: library; a variant is named by its letters at N, in order (parent)
chain: GCUGUCACCGGAAUACCAGCAUCGUCUUGAUGCCCUUGGAAGUCCGGUCUGAUGAGUCCNNNNNGGACGAAACAGC

Variants of: B1
procedure_details: normalized RNA/DNA level without ligand (relative to sTRSVctl = 100) (log10 (% of sTRSVctl)); higher = less ribozyme self-cleavage, higher mRNA level
measurement_setup: HEK293T, reporter: mCherry (pCS4076), ligand present: no
Answer with a bare number; do not write a unit.

The reported normalized RNA/DNA level without ligand (log10) of the variant ACGGC was 1.97

The reported normalized RNA/DNA level without ligand (log10) of the variant AUCUU was 1.93

The reported normalized RNA/DNA level without ligand (log10) of the variant ACACU was 1.85

The reported normalized RNA/DNA level without ligand (log10) of the variant UGGUC was 1.95

The reported normalized RNA/DNA level without ligand (log10) of the variant CAUGA was 1.69

The reported normalized RNA/DNA level without ligand (log10) of the variant AUUGU was 1.88

The reported normalized RNA/DNA level without ligand (log10) of the variant CGGAU was 1.65

The reported normalized RNA/DNA level without ligand (log10) of the variant CGGAA was 1.25

The reported normalized RNA/DNA level without ligand (log10) of the variant AGCUC was 1.9

The reported normalized RNA/DNA level without ligand (log10) of the variant CUGUC was 1.99

The reported normalized RNA/DNA level without ligand (log10) of the variant CAUAU was 1.76

The reported normalized RNA/DNA level without ligand (log10) of the variant AAUGU was 1.77

The reported normalized RNA/DNA level without ligand (log10) of the variant ACAAA was 1.44

The reported normalized RNA/DNA level without ligand (log10) of the variant CACCU was 1.78

The reported normalized RNA/DNA level without ligand (log10) of the variant CGCAC was 1.9

The reported normalized RNA/DNA level without ligand (log10) of the variant GAAUG was 1.6

The reported normalized RNA/DNA level without ligand (log10) of the variant AGGUA was 1.66

The reported normalized RNA/DNA level without ligand (log10) of the variant UAUGA was 1.57

The reported normalized RNA/DNA level without ligand (log10) of the variant UACAC was 1.99

The reported normalized RNA/DNA level without ligand (log10) of the variant GAGCG was 1.79

The reported normalized RNA/DNA level without ligand (log10) of the variant AUGGA was 1.68

The reported normalized RNA/DNA level without ligand (log10) of the variant CUACU was 1.8

The reported normalized RNA/DNA level without ligand (log10) of the variant AUCUC was 1.97

The reported normalized RNA/DNA level without ligand (log10) of the variant UGGUU was 1.85

The reported normalized RNA/DNA level without ligand (log10) of the variant CCAGC was 1.99

The reported normalized RNA/DNA level without ligand (log10) of the variant CCCCU was 1.95

The reported normalized RNA/DNA level without ligand (log10) of the variant GAAAG was 1.66

The reported normalized RNA/DNA level without ligand (log10) of the variant AGGGU was 1.74

The reported normalized RNA/DNA level without ligand (log10) of the variant AUCGC was 1.92

The reported normalized RNA/DNA level without ligand (log10) of the variant AAGUA was 1.63

The reported normalized RNA/DNA level without ligand (log10) of the variant CUACA was 1.84

The reported normalized RNA/DNA level without ligand (log10) of the variant UGUAC was 1.95

The reported normalized RNA/DNA level without ligand (log10) of the variant AUUUC was 1.97

The reported normalized RNA/DNA level without ligand (log10) of the variant CACAC was 1.88

The reported normalized RNA/DNA level without ligand (log10) of the variant UUUCC was 1.97

The reported normalized RNA/DNA level without ligand (log10) of the variant ACACG was 1.8

The reported normalized RNA/DNA level without ligand (log10) of the variant CGCUA was 1.48

The reported normalized RNA/DNA level without ligand (log10) of the variant CGACA was 1.45

The reported normalized RNA/DNA level without ligand (log10) of the variant AAGUG was 1.79

The reported normalized RNA/DNA level without ligand (log10) of the variant AUGAA was 1.52

The reported normalized RNA/DNA level without ligand (log10) of the variant AAGCG was 1.96

The reported normalized RNA/DNA level without ligand (log10) of the variant AUUUG was 1.93

The reported normalized RNA/DNA level without ligand (log10) of the variant CCUUU was 1.85

The reported normalized RNA/DNA level without ligand (log10) of the variant CGAAU was 1.43

The reported normalized RNA/DNA level without ligand (log10) of the variant UAGAC was 1.91

The reported normalized RNA/DNA level without ligand (log10) of the variant CAAAC was 1.82
